Give measured cumulative excretion into feces for each item. Keep answers brief.
Test name: Excretion into urine and feces and mass balance after oral RPM extract
Run conditions: single p.o. RPM extract 18 g/kg, rat feces
Lab book: enter the figure in nmol, no units written.

Given the entry COc1cc(O[C@@H]2O[C@H](CO)[C@@H](O)[C@H](O)[C@H]2O)c2c(c1)C(=O)c1cc(C)cc(O)c1C2=O [PG, physcion-8-O-β-D-glucoside] , report its measured cumulative excretion into feces.
13.6

I would be grateful if you could share the reported cumulative excretion into feces for COc1cc(O[C@@H]2O[C@H](CO)[C@@H](O)[C@H](O)[C@H]2O)c2c(O)c(C(C)=O)c(C)cc2c1 [TG, torachrysone-8-O-glucoside] .
30.4

For the compound shown here, `OC[C@H]1O[C@@H](Oc2c(O)cc(O)cc2/C=C/c2ccc(O)cc2)[C@H](O)[C@@H](O)[C@@H]1O` , give the reported cumulative excretion into feces.
2778

For `Cc1cc(O)c2c(c1)C(=O)c1cc(O)cc(O)c1C2=O` , what is its reported cumulative excretion into feces?
50.3

Looking for the measured cumulative excretion into feces of `COc1cc(O)cc2c1C(=O)c1c(O)cc(CO)cc1C2=O` , can you help?
0.566

Look up cumulative excretion into feces: `O=C1c2cccc(O)c2C(=O)c2c(O)cc(CO)cc21`
43.7

###

Test name: Excretion into urine and feces and mass balance after oral RPM extract
Run conditions: single p.o. RPM extract 18 g/kg, rat urine
Observable: cumulative excretion into urine (nmol)
Record the value in nmol, omitting the unit from your answer.

State the recorded cumulative excretion into urine for this entry: COc1cc(O[C@@H]2O[C@H](CO)[C@@H](O)[C@H](O)[C@H]2O)c2c(O)c(C(C)=O)c(C)cc2c1 [TG, torachrysone-8-O-glucoside]
19.1

Looking for the measured cumulative excretion into urine of COc1cc(O[C@@H]2O[C@H](CO)[C@@H](O)[C@H](O)[C@H]2O)c2c(c1)C(=O)c1cc(C)cc(O)c1C2=O [PG, physcion-8-O-β-D-glucoside] , can you help?
5.53

Entry under review: `O=C1c2cccc(O)c2C(=O)c2c(O)cc(CO)cc21` . Reported cumulative excretion into urine?
19.3

May I ask what cumulative excretion into urine has been recorded for `OC[C@H]1O[C@@H](Oc2c(O)cc(O)cc2/C=C/c2ccc(O)cc2)[C@H](O)[C@@H](O)[C@@H]1O` ?
1619

Fill in: cumulative excretion into urine of `Cc1cc(O)c2c(c1)C(=O)c1cc(O)cc(O)c1C2=O` is ___
19.0

###

Test name: Tissue distribution of RPM constituents after oral RPM extract
Run conditions: both, Sprague-Dawley, rat, intestine, po, 18 g/kg
Observable: AUC(0-t) (µM·h)
Please state the figure in µM·h; there is no need to write the unit.

Would you kindly share the measured AUC(0-t) for O=C1c2cccc(O)c2C(=O)c2c(O)cc(CO)cc21 [Aloe-emodin, aloe-emodin] ?
0.00733

What does the data say about its AUC(0-t)? Entry: Cc1cc(O)c2c(c1)C(=O)c1cc(O)cc(O)c1C2=O [Emodin, emodin]
5.57

###

Test name: Plasma pharmacokinetics of RPM constituents after oral RPM extract
Run conditions: Sprague-Dawley, rat, plasma, po, 6 g/kg
So I've got a bunch of compounds here, and I need their AUC(0-inf) values.
Report as a plain number; the unit µM·h is understood.

Entry under review: Cc1cc(O)c2c(c1)C(=O)c1cccc(O)c1C2=O [Chrysophanol] . Reported AUC(0-inf)?
0.34

What value of AUC(0-inf) has been recorded for this entry: Cc1cc(O)c2c(c1)C(=O)c1cc(O)cc(O)c1C2=O [Emodin, emodin]
1.35

Bench note: what AUC(0-inf) did OC[C@H]1O[C@@H](Oc2c(O)cc(O)cc2/C=C/c2ccc(O)cc2)[C@H](O)[C@@H](O)[C@@H]1O [TSG] show?
2.46

Request the reported AUC(0-inf) associated with O=C1c2cccc(O)c2C(=O)c2c(O)cc(CO)cc21 [Aloe-emodin, aloe-emodin]
0.0124

# get_value(readout='AUC(0-inf)', item= COc1cc(O[C@@H]2O[C@H](CO)[C@@H](O)[C@H](O)[C@H]2O)c2c(O)c(C(C)=O)c(C)cc2c1 [TG, torachrysone-8-O-glucoside] )
0.0166

Can you share its AUC(0-inf)? I mean this compound: COc1cc(O[C@@H]2O[C@H](CO)[C@@H](O)[C@H](O)[C@H]2O)c2c(c1)C(=O)c1cc(C)cc(O)c1C2=O [PG, physcion-8-O-β-D-glucoside]
0.0919

Return reported AUC(0-inf); argument: COc1cc(O)cc2c1C(=O)c1c(O)cc(CO)cc1C2=O [Questinol, questinol]
0.027

###

Test name: in vivo
Run conditions: both, Sprague-Dawley, rat, po, 18 g/kg, AUC0-t in lung
Observable: AUC(0-t) (µM·h)
Dear colleague, please return just the value in µM·h, with no unit written.

Name the recorded AUC(0-t) for O=C1c2cc(O)cc(O)c2C(=O)c2c(O)cc(CO)cc21 [Citreorosein] .
0.58

###

Test name: Plasma pharmacokinetics of RPM constituents after oral RPM extract
Run conditions: Sprague-Dawley, rat, plasma, po, 6 g/kg
Exercise: state measured log10 of MRT inf for each of the compounds provided.
Friendly reminder: values = log10 of MRT inf, unit h.

Record request: log10 of MRT inf value, item `Cc1cc(O)c2c(c1)C(=O)c1cccc(O)c1C2=O`
1.61

// returns reported log10 of MRT inf for input COc1cc(O[C@@H]2O[C@H](CO)[C@@H](O)[C@H](O)[C@H]2O)c2c(O)c(C(C)=O)c(C)cc2c1 [TG, torachrysone-8-O-glucoside]
0.20

Give its log10 of MRT inf value. Item: `COc1cc(O)cc2c1C(=O)c1c(O)cc(CO)cc1C2=O`
1.09

Give the measured log10 of MRT inf of `OC[C@H]1O[C@@H](Oc2c(O)cc(O)cc2/C=C/c2ccc(O)cc2)[C@H](O)[C@@H](O)[C@@H]1O` .
0.59

Fill in: log10 of MRT inf of `O=C1c2cccc(O)c2C(=O)c2c(O)cc(CO)cc21` is ___
0.98

For COc1cc(O[C@@H]2O[C@H](CO)[C@@H](O)[C@H](O)[C@H]2O)c2c(c1)C(=O)c1cc(C)cc(O)c1C2=O [PG, physcion-8-O-β-D-glucoside] , what is its reported log10 of MRT inf?
0.88

Name the recorded log10 of MRT inf for `Cc1cc(O)c2c(c1)C(=O)c1cc(O)cc(O)c1C2=O` .
1.10

###

Test name: Plasma pharmacokinetics of RPM constituents after oral RPM extract
Run conditions: Sprague-Dawley, rat, plasma, po, 18 g/kg
Observable: MRT inf (h)
# output: bare number, implied unit h

Look up MRT inf for this molecule: `Cc1cc(O)c2c(c1)C(=O)c1cc(O)cc(O)c1C2=O`
13

Quick one: MRT inf of `O=C1c2cccc(O)c2C(=O)c2c(O)cc(CO)cc21` ?
4.65

Quick check: MRT inf of `OC[C@H]1O[C@@H](Oc2c(O)cc(O)cc2/C=C/c2ccc(O)cc2)[C@H](O)[C@@H](O)[C@@H]1O` ?
4.37

Form field: reported MRT inf of COc1cc(O[C@@H]2O[C@H](CO)[C@@H](O)[C@H](O)[C@H]2O)c2c(c1)C(=O)c1cc(C)cc(O)c1C2=O [PG, physcion-8-O-β-D-glucoside]
9.64

Bench note: what MRT inf did `COc1cc(O)cc2c1C(=O)c1c(O)cc(CO)cc1C2=O` show?
20.6

Query (molecule): COc1cc(O[C@@H]2O[C@H](CO)[C@@H](O)[C@H](O)[C@H]2O)c2c(O)c(C(C)=O)c(C)cc2c1 [TG, torachrysone-8-O-glucoside] ; field requested: MRT inf
2.23

###

Test name: in vivo
Run conditions: Sprague-Dawley, rat, po, 18 g/kg
Observable: Cmax (nM)
# output: bare number, implied unit nM

Field request: Cmax | item: `O=C1c2cc(O)cc(O)c2C(=O)c2c(O)cc(CO)cc21`
349

###

Test name: Tissue distribution of RPM constituents after oral RPM extract
Run conditions: both, Sprague-Dawley, rat, spleen, po, 18 g/kg, AUC0-t in the spleen, RPM extract 18 g/kg p.o., rat spleen, sampling 5, 15, 60 min
Observable: AUC(0-t) (µM·h)
Write it as a number; the unit µM·h goes unstated.

Given the compound `Cc1cc(O)c2c(c1)C(=O)c1cccc(O)c1C2=O` , what is its reported AUC(0-t)?
0.0503

###

Test name: in vivo
Run conditions: Sprague-Dawley, rat, po, 6 g/kg
Observable: Cmax (nM)
The figure you give is taken to be in nM; do not add the unit.

Consider the compound shown here: O=C1c2cc(O)cc(O)c2C(=O)c2c(O)cc(CO)cc21 [Citreorosein] What is its recorded Cmax?
41.2
